Kindly state IC50 for each of the entries shown.
Tested on: NCI-H1651;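 also: Read-out is a cell viability assay, with IC50 expressing inhibition of NCI-H1651 cell growth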
Experiment: cells
Assay type: functional, cell-based
Details: Homo sapiens
Description: SANGER: Inhibition of human NCI-H1651 cell growth in a cell viability assay.

Observe how each entry below is paired with its result.
smiles repr: OC[C@H](Cc1ccccc1)Nc1nc(Oc2ccc3c(c2)CCC3)nc2c1ncn2Cc1ccc(-c2ccccc2)cc1
metric name: IC50
result: > 10.2 µM

smiles repr: Cc1ccc(C(=O)Nc2ccc(CN3CCN(C)CC3)c(C(F)(F)F)c2)cc1C#Cc1cnc2cccnn12
metric name: IC50
result: > 0.512 µM

smiles repr: O=C(NCCCNc1nc(Nc2cccc(NC(=O)N3CCCC3)c2)ncc1I)c1cccs1
metric name: IC50
result: > 5 µM

smiles repr: O=C1NC(=O)c2c1c(-c1ccccc1Cl)cc1[nH]c3ccc(O)cc3c21
metric name: IC50
result: > 2 µM

smiles repr: NC(=O)c1ccc(N(C(N)=O)c2c(F)cccc2F)nc1-c1ccc(F)cc1F
metric name: IC50
result: > 2 µM

smiles repr: C/C(=C\c1csc(C)n1)[C@@H]1C[C@@H]2O[C@]2(C)CCC[C@H](C)[C@H](O)[C@@H](C)C(=O)C(C)(C)[C@@H](O)CC(=O)O1
metric name: IC50
result: 0.00371 µM

Switching to the query record.
Query: What does the record list as IC50 for `COC(=O)[C@H](CCSC)NC(=O)c1ccc(NC[C@@H](N)CS)cc1-c1ccccc1` ?
Reply: > 1.02 µM

###

Test system: DEL;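 also: growth inhibition of the human DEL cell line, read out with a cell viability assay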
Experiment: cells
Type: functional, cell-based, Homo sapiens
Settings: Homo sapiens, DEL
Description: SANGER: Inhibition of human DEL cell growth in a cell viability assay.
metric name: IC50

Dear reader, for each entry below, please note its IC50.
1. NC(=O)c1cccc(-c2cc(Nc3ccc(OC(F)(F)F)cc3)ncn2)c1
2. Cc1ccc(NC(=O)c2ccc(CN3CCN(C)CC3)cc2)cc1Nc1nccc(-c2cccnc2)n1 [IMATINIB]
3. CN(NC(=O)CC(=O)NN(C)C(=S)c1ccccc1)C(=S)c1ccccc1 [ELESCLOMOL]

Reply:
1: > 1280 nM; 2: > 2000 nM; 3: 19.2 nM

###

Tested on: NCI-H630
Assay: cells
Format: functional, cell-based
Conditions: Homo sapiens
Description: SANGER: Inhibition of human NCI-H630 cell growth in a cell viability assay.
metric name: IC50

Reference set (5 entries):
molecule: CC1=C(/C=C/C(C)=C/C=C/C(C)=C/C(=O)O)C(C)(C)CCC1 [TRETINOIN]
IC50: > 10 µM
//
molecule: O=C1NC(=O)c2c1c(-c1ccccc1Cl)cc1[nH]c3ccc(O)cc3c21
IC50: 1.93 µM
//
molecule: O=C(NCCCNc1nc(Nc2cccc(NC(=O)N3CCCC3)c2)ncc1I)c1cccs1 [BX-795]
IC50: > 5 µM
//
molecule: CS(=O)(=O)N1CCN(Cc2cc3nc(-c4cccc5[nH]ncc45)nc(N4CCOCC4)c3s2)CC1 [PICTILISIB]
IC50: > 4 µM
//
molecule: O=S(=O)(O)c1ccc2cc(/N=N/c3cc(S(=O)(=O)O)c4cccnc4c3O)ccc2c1
IC50: > 16 µM

Query: Field request: IC50 | item: CO[C@@H]1[C@H](N(C)C(=O)c2ccccc2)C[C@H]2O[C@]1(C)n1c3ccccc3c3c4c(c5c6ccccc6n2c5c31)C(=O)NC4 [MIDOSTAURIN]
Reply: > 0.512 µM

###

Tested on: KYSE-140;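 also: cell viability assay measuring growth inhibition in human KYSE-140 cells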
Assay: cells
Assay type: functional, cell-based
Conditions: Homo sapiens
Description: SANGER: Inhibition of human KYSE-140 cell growth in a cell viability assay.
pIC50: −log10 of the molar value.
metric name: pIC50

smiles repr: CN(NC(=O)CC(=O)NN(C)C(=S)c1ccccc1)C(=S)c1ccccc1
metric name: pIC50
result: 7.68
--
smiles repr: CN(C)CCOc1ccc(-c2nc(-c3ccncc3)c(-c3ccc4c(c3)CC/C4=N\O)[nH]2)cc1
metric name: pIC50
result: < 5.30

For the 2 compounds below, give their pIC50 values.
1. CC1(C)CCC(c2ccc(Cl)cc2)=C(CN2CCN(c3ccc(C(=O)NS(=O)(=O)c4ccc(N[C@H](CCN5CCOCC5)CSc5ccccc5)c(S(=O)(=O)C(F)(F)F)c4)cc3)CC2)C1
2. NC(=O)c1ccc(N(C(N)=O)c2c(F)cccc2F)nc1-c1ccc(F)cc1F

Reply:
< 5.70
< 5.70

###

System: NCI-H838;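 also: growth inhibition of human NCI-H838 cells, read out by a cell viability assay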
Assay: cells
Format: functional, cell-based
Conditions: Homo sapiens
Description: SANGER: Inhibition of human NCI-H838 cell growth in a cell viability assay.
metric name: IC50

Query: Query IC50 on NCI-H838 for `COC(=O)[C@H](CCSC)NC(=O)c1ccc(NC[C@@H](N)CS)cc1-c1ccccc1`
Reply: > 1.02 µM

###

Assignment: determine reported pIC50 for the given compounds.
Test system: REH;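 also: growth inhibition of REH cells determined with a cell viability read-out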
Assay: cells
Format: functional, cell-based, Homo sapiens
Details: Homo sapiens, REH
Description: SANGER: Inhibition of human REH cell growth in a cell viability assay.
pIC50: −log10 of the molar value.

# annotated cases, reported pIC50 shown
compound: C=CC(=O)N1CCCC(Nc2nc(Nc3ccc(N(C)C(=O)CC)cc3)nc3[nH]cnc23)C1 (stereo not given)
pIC50: < 4.99
--
compound: Cc1ccc(C(=O)Nc2ccc(CN3CCN(C)CC3)c(C(F)(F)F)c2)cc1C#Cc1cnc2cccnn12
pIC50: < 6.29
--
compound: Cc1cc(N2CCOCC2)cc2[nH]c(-c3c(NC[C@@H](O)c4cccc(Cl)c4)cc[nH]c3=O)nc12
pIC50: < 5.29

Okay, here is my list. What is pIC50 for each of these?
1. COc1cc(N2CCC(N3CCN(C)CC3)CC2)ccc1Nc1ncc(Cl)c(Nc2ccccc2S(=O)(=O)C(C)C)n1
2. OC[C@H](Cc1ccccc1)Nc1nc(Oc2ccc3c(c2)CCC3)nc2c1ncn2Cc1ccc(-c2ccccc2)cc1

Reply:
["< 5.70", "< 4.99"]

###

Test system: SK-PN-DW;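 also: growth inhibition measured with a viability assay on these cells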
Test: cells
Type: functional, cell-based, Homo sapiens
Conditions: Homo sapiens, SK-PN-DW
Description: SANGER: Inhibition of human SK-PN-DW cell growth in a cell viability assay.
Field: pIC50. Provide a value for each of the compounds that follow.
Numbers only, as −log10 of the molar value.

smiles repr: OC[C@H](Cc1ccccc1)Nc1nc(Oc2ccc3c(c2)CCC3)nc2c1ncn2Cc1ccc(-c2ccccc2)cc1
metric name: pIC50
result number: 5.26

smiles repr: CCCCCCCCCCCC1=C(O)C(=O)C=C(O)C1=O
metric name: pIC50
result number: 4.51

Query: Return reported pIC50; argument: `COc1ccc(-c2cc3nccn3c(Nc3ncccc3C(N)=O)n2)cc1OC`
Reply: 5.27

###

Would you mind telling me the reported IC50 of each entry?
Test system: COLO-684
Test: cells
Type: functional, cell-based, Homo sapiens
Conditions: Homo sapiens, COLO-684
Description: SANGER: Inhibition of human COLO-684 cell growth in a cell viability assay.

// batch mode: one IC50 value per listed entry
1. CC(C)C[C@H](NC(=O)[C@H](Cc1ccccc1)NC(=O)c1cnccn1)B(O)O [BORTEZOMIB]
2. CCCCCCCCCCCC1=C(O)C(=O)C=C(O)C1=O [EMBELIN]
3. O=S(=O)(O)c1ccc2cc(/N=N/c3cc(S(=O)(=O)O)c4cccnc4c3O)ccc2c1
4. Nc1ccccc1NC(=O)c1ccc(CNC(=O)OCc2cccnc2)cc1 [ENTINOSTAT]
5. CN(C)CCOc1ccc(-c2nc(-c3ccncc3)c(-c3ccc4c(c3)CC/C4=N\O)[nH]2)cc1 [SB590885]
6. NC(=O)c1ccc(N(C(N)=O)c2c(F)cccc2F)nc1-c1ccc(F)cc1F [VX-702]

Reply:
1. 0.00366 µM
2. 20.6 µM
3. > 16 µM
4. > 5 µM
5. > 5 µM
6. > 2 µM

###

For each of the compounds below, state its pIC50.
System: S-117
Assay: cells
Format: functional, cell-based
Conditions: Homo sapiens
Description: SANGER: Inhibition of human S-117 cell growth in a cell viability assay.
pIC50: −log10 of the molar value.

compound: CN(NC(=O)CC(=O)NN(C)C(=S)c1ccccc1)C(=S)c1ccccc1 [ELESCLOMOL]
target: S-117
pIC50: 7.56

compound: O=C1NC(=O)c2c1c(-c1ccccc1Cl)cc1[nH]c3ccc(O)cc3c21
target: S-117
pIC50: < 5.70

compound: C/C(=C\c1csc(C)n1)[C@@H]1C[C@@H]2O[C@]2(C)CCC[C@H](C)[C@H](O)[C@@H](C)C(=O)C(C)(C)[C@@H](O)CC(=O)O1 [PATUPILONE]
target: S-117
pIC50: < 7.49

// each compound listed below needs its pIC50
1. CC1=C(/C=C/C(C)=C/C=C/C(C)=C/C(=O)O)C(C)(C)CCC1 [TRETINOIN]
2. CN(C)CCOc1ccc(-c2nc(-c3ccncc3)c(-c3ccc4c(c3)CC/C4=N\O)[nH]2)cc1 [SB590885]
3. CC1(C)CCC(c2ccc(Cl)cc2)=C(CN2CCN(c3ccc(C(=O)NS(=O)(=O)c4ccc(N[C@H](CCN5CCOCC5)CSc5ccccc5)c(S(=O)(=O)C(F)(F)F)c4)cc3)CC2)C1 [NAVITOCLAX]
4. COC(=O)[C@H](CCSC)NC(=O)c1ccc(NC[C@@H](N)CS)cc1-c1ccccc1

Reply:
1: < 5.00; 2: < 5.30; 3: < 5.70; 4: < 5.99

###

Test system: 8-MG-BA
Assay: cells
Assay type: functional, cell-based, Homo sapiens
Settings: Homo sapiens, 8-MG-BA
Description: SANGER: Inhibition of human 8-MG-BA cell growth in a cell viability assay.
metric name: IC50

smiles repr: OC[C@H](Cc1ccccc1)Nc1nc(Oc2ccc3c(c2)CCC3)nc2c1ncn2Cc1ccc(-c2ccccc2)cc1
target: 8-MG-BA
IC50: 3540 nM
//
smiles repr: CS(=O)(=O)N1CCN(Cc2cc3nc(-c4cccc5[nH]ncc45)nc(N4CCOCC4)c3s2)CC1
target: 8-MG-BA
IC50: > 4000 nM
//
smiles repr: CC1=C(/C=C/C(C)=C/C=C/C(C)=C/C(=O)O)C(C)(C)CCC1
target: 8-MG-BA
IC50: > 10000 nM
//
smiles repr: C[C@@H](Oc1cc(-c2cnn(C3CCNCC3)c2)cnc1N)c1c(Cl)ccc(F)c1Cl
target: 8-MG-BA
IC50: > 2000 nM
//
smiles repr: O=C1NC(=O)c2c1c(-c1ccccc1Cl)cc1[nH]c3ccc(O)cc3c21
target: 8-MG-BA
IC50: 1550 nM
//
smiles repr: NC(=O)Nc1cc(-c2cccc(F)c2)sc1C(=O)N[C@H]1CCCNC1
target: 8-MG-BA
IC50: 258 nM
//
smiles repr: Cc1ccc(-n2nc(C(C)(C)C)cc2NC(=O)Nc2ccc(OCCN3CCOCC3)c3ccccc23)cc1
target: 8-MG-BA
IC50: > 10000 nM
//
smiles repr: COC(=O)[C@H](CCSC)NC(=O)c1ccc(NC[C@@H](N)CS)cc1-c1ccccc1
target: 8-MG-BA
IC50: > 1020 nM
//
smiles repr: COc1ccc(-c2cc3nccn3c(Nc3ncccc3C(N)=O)n2)cc1OC
target: 8-MG-BA
IC50: > 8000 nM

Here is another compound to look at.
Query: I would be grateful if you could share the reported IC50 for `CC1(C)CCC(c2ccc(Cl)cc2)=C(CN2CCN(c3ccc(C(=O)NS(=O)(=O)c4ccc(N[C@H](CCN5CCOCC5)CSc5ccccc5)c(S(=O)(=O)C(F)(F)F)c4)cc3)CC2)C1` .
Reply: > 2000 nM
